assay: ATG_CMV_CIS: Attagene CIS-FACTORIAL HepG2 Assay for human CMV (Internal Marker) (AID 2282928); conditions: HepG2 CMV promoter reporter, transcription factor profiling; actives raise or lower the signal;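 also: endpoint acts as a background internal control marker rather than a target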
Active and inactive are the calls of the source. The calls were made as follows: active = hit-call score of the fitted dose curve at least 0.9, where 1 is the maximum; inactive = score below 0.9.
Outcomes: active, inactive

molecule | class
CCCC(C)C=O (stereo unspecified) | inactive
O=C(O)CCCCC1CCSS1 (stereo unspecified) | inactive
CC1(C)C(=O)N(Br)C(=O)N1Cl | inactive
COc1cc2ncnc(Nc3cccc(Cl)c3)c2cc1OC | inactive
COc1cc(C(C)(C)C)c(O)c(C(C)(C)C)c1 | inactive
CC(=O)OCc1ccc2c(c1)OCO2 | inactive
Cc1ccc2n[nH]nc2c1 | inactive
CCC(C)(O)CCC=C(C)C (stereo unspecified) | inactive
CCCCNC(=O)NS(=O)(=O)c1ccc(N)cc1 | inactive
NNc1nc(-c2ccc(N)cc2)cs1 | inactive
CCCC/C=C\CCCCCCCCCC=O | inactive
N#Cc1nc(Cl)c(Cl)c(Cl)c1Cl | active
Cc1c(Cl)c(=O)oc2cc(O)ccc12 | active
CCCCCCCCC=O | inactive
OCc1cccnc1 | inactive
OCCCCCO | inactive

Cited source: PubChem BioAssay (EPA / NIEHS)
